Data origin: patent US20110217317A1

Target: T1, Rhesus D antigen (human, UniProt Q02161 2-417)
T1 construct: whole, on cells; Presented on RhD-positive erythrocytes in all assays; also called RhD; RhD antigen
T1 sequence (looked up): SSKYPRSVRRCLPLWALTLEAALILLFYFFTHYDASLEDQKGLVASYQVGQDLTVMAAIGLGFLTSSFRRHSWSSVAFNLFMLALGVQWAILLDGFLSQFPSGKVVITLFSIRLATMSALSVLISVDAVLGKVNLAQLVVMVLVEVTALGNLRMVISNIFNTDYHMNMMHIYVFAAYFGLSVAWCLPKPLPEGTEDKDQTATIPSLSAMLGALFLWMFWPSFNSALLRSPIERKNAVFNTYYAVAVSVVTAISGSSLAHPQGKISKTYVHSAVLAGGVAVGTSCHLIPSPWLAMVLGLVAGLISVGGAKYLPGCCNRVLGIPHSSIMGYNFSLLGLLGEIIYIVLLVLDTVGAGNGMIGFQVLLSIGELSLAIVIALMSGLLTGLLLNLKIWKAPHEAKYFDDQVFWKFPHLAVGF
Experiment: agglutination assay, Fab on RhD(+)/RhD(-) RBC mix
measured-attribute: binding result

INSERT INTO measurements (binder, observed_measurement) VALUES
  ('RhD160.119C07 (Fab, V domains shown, Tested as Fab (periplasmic extract)) VH: EVQLVESGGGVVQPGRSLRLSCAASGFTFSNYGMHWVRQAPGKGLEWVAVIWYDGSNRFYADSVKGRFTISRDNSKNTLYLQMNNLRAEDTALYSCAREITTTVVVRRHYLMDIWGQGTTVTVSS VL: DIQLTQSPSSLSASVGDRVSITCRASQGISNSLAWYQQKPGKVPKLLIYAASTLQSGVPSRFSGGGSGTDFTLTISSLQPEDVATYYCQKYNSAPFAFGPGTKVDIKR', 'binds'),
  ('RhD240.125A09 (Fab, V domains shown, Tested as Fab (periplasmic extract)) VH: QLQLQESGPGLVKPSGTLSLTCAVSGGSMRSSNWWTWVRQPPGKGLEWIGEIHHGGSTNYNPSLQSRVTISVDKSKNRFSLKLSSVTAADTAVYHCARGRSYYDSSGHSFRGLVPFDIWGQGTMVTVSS VL: DIQMTQSPSTLSASVGDRVTITCRASQSISSWLAWYQQKPGKAPKLLVYKTSSLEGGVPSRFSGSGSGTEFSLTIFRLQSDDFATYYCQQYNSFPYTFGQGTKLEFTR', 'binds'),
  ('RhD207.127A11 (Fab, V domains shown, Tested as Fab (periplasmic extract)) VH: EVQLVESGGGVVQPGRSLRLSCAASGFTFSSYGMHWVRQAPGKGLEWVAVIWYDGSNKDYVDSVKGRFTISRDNSKNTLYLQMNSLRAEDTAVYYCARELAKGRLRDLDHWGQGTLVTVSS VL: QAVVTQEPSLTVSPGGTVTLTCASSTGAVTTGYYPNWFQQKPGQAPRALVHSTSKKHSWTPARFSGSLLGGKAALTLSGVQPEDEAEYYCLLFYGGAQLGVFGGGTKLTVLG', 'binds');
